system: Mature gametocytes (>95% stage V); test: microbe, parasite or virus in culture; assay type: cell-based, Plasmodium falciparum; settings: 48 h drug pressure; read-out: IC50 ± S.E., mature gametocytes
Endpoint name: IC50 (µM)

* Cc1ccc2c(c1)nc(-[c-]1cccc1CN(C)C)n2CCCNc1ccnc2cc(Cl)ccc12.[Fe+2].c1cc[cH-]c1 (stereo not shown) | 7.27

---

The following molecules are listed with their measured Cathodic peak potential Epc values.
experiment: Cyclic voltammetry of the ferrocene/ferrocenium couple; format: physicochemical; conditions: vs Ag/AgCl, scan rate 100 mV/s, CH2Cl2, 0.1 M TBAP
Endpoint name: Cathodic peak potential Epc (V)

- Cc1ccc2c(c1)nc(-[c-]1cccc1)n2CCNCCNc1ccnc2cc(Cl)ccc12.[Fe+2].c1cc[cH-]c1: 0.518
- [Fe+2].c1cc[cH-]c1.c1cc[cH-]c1 [Ferrocene, reference compound]: 0.372
- CN(C)Cc1ccc[c-]1CNc1ccnc2cc(Cl)ccc12.[Fe+2].c1cc[cH-]c1 (centres unmarked) [FQ, ferroquine, reference compound]: 0.488
- Cc1ccc2c(c1)nc(-[c-]1cccc1)n2CCN(CCNc1ccnc2cc(Cl)ccc12)[c-]1cccc1.[Fe+2].[Fe+2].c1cc[cH-]c1.c1cc[cH-]c1: 0.442
- Cc1ccc2c(c1)nc(-[c-]1cccc1)n2CCCNc1ccnc2cc(Cl)ccc12.[Fe+2].c1cc[cH-]c1: 0.510

---

Assay: Cyclic voltammetry of the ferrocene/ferrocenium couple
Assay type: physicochemical
Conditions: vs Ag/AgCl, scan rate 100 mV/s, CH2Cl2, 0.1 M TBAP
Experimental: It has been proposed that the oxidation of ferrocene (Fe(C5H5)2) to the ferrocenium cation (Fe(C5H5)2 ^+) is a reversible one-electron transfer process. […] Nuclear magnetic resonance (NMR) spectra were recorded on a Bruker XR600 MHz spectrometer (^1H at 599.95 MHz and ^13C{^1H} at 151.0 MHz), a Bruker […] (^1H at 400.22 MHz and ^13C{^1H} at 100.65 MHz), or a Varian Mercury 300 (^1H at 300.08 MHz) spectrometer. […]
Endpoint name: Half-wave potential E1/2 (V)

* CN(C)Cc1ccc[c-]1CNc1ccnc2cc(Cl)ccc12.[Fe+2].c1cc[cH-]c1 (centres unmarked) [FQ, ferroquine, reference compound] | 0.550
* Cc1ccc2c(c1)nc(-[c-]1cccc1)n2CCNCCNc1ccnc2cc(Cl)ccc12.[Fe+2].c1cc[cH-]c1 | 0.584
* [Fe+2].c1cc[cH-]c1.c1cc[cH-]c1 [Ferrocene, reference compound] | 0.458
* Cc1ccc2c(c1)nc(-[c-]1cccc1)n2CCN(CCNc1ccnc2cc(Cl)ccc12)[c-]1cccc1.[Fe+2].[Fe+2].c1cc[cH-]c1.c1cc[cH-]c1 | 0.537
* Cc1ccc2c(c1)nc(-[c-]1cccc1)n2CCCNc1ccnc2cc(Cl)ccc12.[Fe+2].c1cc[cH-]c1 | 0.574

---

test: Cyclic voltammetry of the ferrocene/ferrocenium couple; assay type: physicochemical; settings: scan rate 100 mV/s, CH2Cl2, 0.1 M TBAP
Endpoint name: Ipc/Ipa

• CN(C)Cc1ccc[c-]1CNc1ccnc2cc(Cl)ccc12.[Fe+2].c1cc[cH-]c1 (centres unmarked) [FQ, ferroquine, reference compound] = 1.00
• Cc1ccc2c(c1)nc(-[c-]1cccc1)n2CCN(CCNc1ccnc2cc(Cl)ccc12)[c-]1cccc1.[Fe+2].[Fe+2].c1cc[cH-]c1.c1cc[cH-]c1 = 1.04
• Cc1ccc2c(c1)nc(-[c-]1cccc1)n2CCNCCNc1ccnc2cc(Cl)ccc12.[Fe+2].c1cc[cH-]c1 = 1.03
• Cc1ccc2c(c1)nc(-[c-]1cccc1)n2CCCNc1ccnc2cc(Cl)ccc12.[Fe+2].c1cc[cH-]c1 = 1.04
• [Fe+2].c1cc[cH-]c1.c1cc[cH-]c1 [Ferrocene, reference compound] = 1.05
